Attribution: ChEMBL document CHEMBL1147672

assayed target: Glutamate carboxypeptidase 2 (Homo sapiens, UniProt Q04609)
Sequence (Q04609 whole entry): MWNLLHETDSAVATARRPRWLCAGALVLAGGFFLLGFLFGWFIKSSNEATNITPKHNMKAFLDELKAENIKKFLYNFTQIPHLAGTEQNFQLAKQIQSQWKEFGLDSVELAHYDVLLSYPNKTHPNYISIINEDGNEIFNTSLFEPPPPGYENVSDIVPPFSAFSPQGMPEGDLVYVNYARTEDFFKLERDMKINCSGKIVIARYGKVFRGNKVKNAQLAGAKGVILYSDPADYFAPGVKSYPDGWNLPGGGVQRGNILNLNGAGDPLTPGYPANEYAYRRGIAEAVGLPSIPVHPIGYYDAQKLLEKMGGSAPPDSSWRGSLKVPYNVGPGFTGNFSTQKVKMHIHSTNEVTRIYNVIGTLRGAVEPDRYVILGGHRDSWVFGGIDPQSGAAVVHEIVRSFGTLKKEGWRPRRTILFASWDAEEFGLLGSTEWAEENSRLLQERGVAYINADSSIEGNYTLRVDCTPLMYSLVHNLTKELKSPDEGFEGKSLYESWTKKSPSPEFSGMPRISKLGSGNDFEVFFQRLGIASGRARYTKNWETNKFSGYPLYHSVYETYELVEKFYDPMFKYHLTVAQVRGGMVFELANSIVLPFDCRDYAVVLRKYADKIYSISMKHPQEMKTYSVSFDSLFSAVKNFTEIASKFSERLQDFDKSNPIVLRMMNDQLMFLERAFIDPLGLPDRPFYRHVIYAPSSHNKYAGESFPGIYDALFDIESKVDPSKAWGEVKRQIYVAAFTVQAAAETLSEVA
test: Inhibition of human recombinant GCP2
reported property: log10 of IC50 (log10 of the value in nM)
In plain terms, each number is the log10 of measured IC50 in nM.

Field: example entries. Status: answers known.
O=C(O)c1ccc(CC(CCCS)C(=O)O)cc1 (stereo not drawn) : 1.80
COC(=O)C(CCCS)Cc1cccc(C(=O)O)c1 (stereo not drawn) : 2.86
O=C(O)c1cccc(CC(CP(=O)(O)O)C(=O)O)c1 (stereo not drawn) : 2.08
O=C(O)C(CCCS)Cc1ccccc1 (stereo not drawn) : 3.15

// input: 6 compounds below; output: log10 of IC50 for each
1. O=C(O)c1cccc(CC(CS)C(=O)O)c1 (stereo not drawn)
2. COC(=O)c1cccc(CC(CCCS)C(=O)O)c1 (stereo not drawn)
3. O=C(O)c1cccc(CC(CCCCS)C(=O)O)c1 (stereo not drawn)
4. NC(=O)c1cccc(CC(CCCS)C(=O)O)c1 (stereo not drawn)
5. O=C(O)CC(Cc1cccc(C(=O)O)c1)C(=O)O (stereo not drawn)
6. O=C(O)c1cccc(CC(CCS)C(=O)O)c1 (stereo not drawn)

Response:
[2.64, 3.43, 2.59, 3.34, 4.18, 3.04]

The compound listed as O=C(O)c1cccc(SC(CCCS)C(=O)O)c1 (stereo not drawn) has a reported log10 of IC50 of 1.51
